Molecular target: T1, fragment DIR-II (last 27 amino acids of the sequence encoded by the retained intron of DIR) (human)
T1 construct: also called target fragment DIR-II
T1 peptide: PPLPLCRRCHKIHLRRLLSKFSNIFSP
Assay: ELISA, DIR-II coated; mAb (1 mg/mL) diluted 1:6k
property-name: absorbance at 450 nm

# example entries with known answers
binder: DIR antibody IR-II-2 (antibody, V domains shown, Monoclonal antibody) VH: EVQLQQSGAELMKPGASVKISCKATGYTFSSYWIEWVKQRPGHGLEWIGEILPGSGTTNYNEKFKGKATFTVDTSSNTAYMQLSSLTSEDSAVYYCARSGVITARGDYYAMDYWGQGTSVTVSS VL: DIVMTQSPASLAVSLGQRATISCKASQSVDYDGDSYMNWYQQKPGQPPKLLIYAASNLDSGIPARFSGSGSGTDFTLNIHPVEEEDAATYYCQQSNEDPRTFGGGTKLEIK
endpoint-value: 1.62 absorbance (450 nm)
//
binder: DIR antibody IR-II-7 (antibody, V domains shown, Monoclonal antibody) VH: QVQLQQSGAELMKPGASVKISCKATGYTFSNYWIEWIKQRPGHGLEWIGEILPGSYYSTNYNEKFKDKATFTADTSSNTAYIQLSSLTSEDSAVYYCARSGIITTRGDYFAMDYWGQGTSVTVSS VL: DIVLTQSPASLAVSLGQRATISCKASQSVDYDGDSYMNWYQQKPGQPPKLLMYAASNLESGIPARFSGSGSGTDFTLNIHPVEEEDAATYYCQQSNEDPRTFGGGTKLEIK
endpoint-value: 2.98 absorbance (450 nm)
//
binder: DIR antibody IR-II-1 (antibody, V domains shown, Monoclonal antibody) VH: QVQLKESGAELMKPGASVKISCKATGYTFSSYWIEWVKQRPGHGLEWIGEILPGSGTTNYNDKFKGKATFTADTSSNTAYMQLSNLTSEDSAVYYCARSYDGYYVFDYWGQGTTLTVSS VL: DIELTQSPASLAVSLGQRATISCKASQSVDYDGDSYMNWYQQKPGQPPKLLIYAASNLESGIPARFSGSGSGTDFTLNIHPVEEEDAATYYCQQSNEDPRTFGGGTKLEIK
endpoint-value: 2.98 absorbance (450 nm)
//
binder: DIR antibody IR-II-8 (antibody, V domains shown, Monoclonal antibody) VH: QVQLQQSGAELMKPGASVKISCKATGYTFSNYWIEWVKQRPGHGLEWIGEILPGSGSTNYNEKFKGKATFTADTSSNTAYMQLSSLTSEDSAVYYCARSGMITTRGDYFAMDYWGQGTSVTVSS VL: DIELTQSPASLAVSLGQRATISCKASQSVDYDGESYMNWYQQKPGQPPKLLIYAASNLESGIPARFSGSGSGTDFTLNIHPVEEEDAATYYCQQSNDDPRTFGGGTKLEIK
endpoint-value: 0.87 absorbance (450 nm)
//
binder: DIR antibody IR-II-10 (A2D10) (antibody, V domains shown, Monoclonal antibody) VH: EVQLQQSGPELVKPGASVKISCKTSGYTFTEYTMHWVKQSHGKSLEWIGGIYPHNGGTNYNQKFKGKATLTVDKSSSTAYMELRSLTSEDSAVYYCTEDLTFDYWGQGTTLTVSS VL: DIQMTQTTSSLSASLGDRVTISCSASQDISNYLNWYQQKPDGTVKLLIYYTSSLHSGVPSRFSGSGSGTDYSLTISNLEPEDIATYHCLQYSKLPFTFGSGTKLEIK
endpoint-value: 0.472 absorbance (450 nm)

Next:
# input Need absorbance at 450 nm, item DIR antibody IR-II-6 (antibody, V domains shown, Monoclonal antibody; also called detection antibody) VH: QVQLQQSGAELMKPGASVKISCKATGYTFSRYWIEWIKQRPGHGLEWIGEILPGSYYSTNSNEKFKGKATFTADTSSNTAYMQLSSLTSEDSAVYYCARSGVITTRGDYFAMDYWGHGTSVTVSS VL: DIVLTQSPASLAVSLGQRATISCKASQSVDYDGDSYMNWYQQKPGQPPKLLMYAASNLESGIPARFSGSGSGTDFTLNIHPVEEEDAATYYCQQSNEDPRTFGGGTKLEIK
# output 3.18 absorbance (450 nm)

Reference for the values: patent US20250060376A1
